Source of measurements: patent US12473295B2

target: menin/MLL (terbium chelate-labeled menin, FITC-MBM1 peptide) (Homo sapiens (Human)); test: Menin/MLL homogenous time-resolved fluorescence (HTRF) assay; format: binding; settings: HTRF-30 min incubation IC50, 30 min incubation;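 note: IC50 from percent inhibition of HTRF signal, normalized between wells without competitor and wells with a saturating competitor that displaces FITC-MBM1 from His-tagged menin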
Sequence (O00255 other isoform, or with tags, fused parts or gaps): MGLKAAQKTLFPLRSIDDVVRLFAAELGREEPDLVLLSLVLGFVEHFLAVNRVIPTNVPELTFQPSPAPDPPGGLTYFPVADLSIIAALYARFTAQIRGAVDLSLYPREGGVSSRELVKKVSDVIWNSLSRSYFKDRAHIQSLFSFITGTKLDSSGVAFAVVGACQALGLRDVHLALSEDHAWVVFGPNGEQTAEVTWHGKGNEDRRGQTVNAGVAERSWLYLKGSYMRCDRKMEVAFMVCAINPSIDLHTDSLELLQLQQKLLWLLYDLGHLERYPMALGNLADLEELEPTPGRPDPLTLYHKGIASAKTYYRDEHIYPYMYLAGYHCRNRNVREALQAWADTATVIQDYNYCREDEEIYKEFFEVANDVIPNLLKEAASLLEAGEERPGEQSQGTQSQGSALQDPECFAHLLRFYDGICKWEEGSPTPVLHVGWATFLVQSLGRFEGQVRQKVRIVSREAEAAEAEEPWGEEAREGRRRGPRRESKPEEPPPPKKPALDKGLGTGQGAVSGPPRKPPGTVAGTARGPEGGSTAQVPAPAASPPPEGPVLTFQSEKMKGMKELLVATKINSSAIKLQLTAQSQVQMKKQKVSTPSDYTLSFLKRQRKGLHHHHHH
pIC50: −log10 of the molar value. Where a name gives a salt, the structure may show the parent alone.
Below, each entry is listed with its recorded pIC50.

COMPOUND: CCN(C(=O)c1cc(F)ccc1Oc1nncnc1N1CCC2(C1)CN(C(CCCNCCS(C)(=O)=O)C(C)C)C2)C(C)C (stereo not drawn)
pIC50: 9.52
//
COMPOUND: CCN(C(=O)c1cc(F)ccc1Oc1nncnc1N1CCC2(C1)CN([C@H](CCCN(C)[C@H](C)COC)C(C)C)C2)C(C)C [Compound 154, fumarate]
pIC50: 10.29
//
COMPOUND: COCCN(C)CCC[C@H](C(C)C)N1CC2(CCN(c3ncnnc3Oc3ccc(F)cc3C(=O)N(C)C(C)C)C2)C1
pIC50: 10.08
//
COMPOUND: CCN(C(=O)c1cc(F)ccc1Oc1nncnc1N1CCC2(C1)CN([C@H](CCN(C)CCCO)C(C)C)C2)C(C)C (single isomer, unassigned)
pIC50: 9.42
//
COMPOUND: CCN(C(=O)c1cc(F)ccc1Oc1nncnc1N1CCC2(C1)CN([C@H](CCN(C)C)C(C)C)C2)C(C)C (single isomer, unassigned)
pIC50: 9.40
//
COMPOUND: CCN(C)C[C@H](O)C[C@@H](C(C)C)N1CC2(CCN(c3ncnnc3Oc3ccc(F)cc3C(=O)N(CC)C(C)C)C2)C1 (relative stereo)
pIC50: 7.92
//
COMPOUND: CCN(C(=O)c1cc(F)ccc1Oc1nncnc1N1CCC2(C1)CN([C@H](CCCNC(=O)OC(C)OC(=O)C(C)C)C(C)C)C2)C(C)C (stereo partly drawn)
pIC50: 9.59
//
COMPOUND: CC(C)[C@@H](C[C@H](O)CN(C)C)N1CC2(CCN(c3ncnnc3Oc3ccc(F)cc3C(=O)N(C(C)C)C(C)C)C2)C1 (single isomer, unassigned)
pIC50: 10.06
//
COMPOUND: CCN(C(=O)c1cc(F)ccc1Oc1nncnc1N1CC2(CCN(C(CCCN(C)CCOC)C(C)C)C2)C1)C(C)C (stereo not drawn) [Compound 302, fumarate]
pIC50: 9.59
//
COMPOUND: CCN(C(=O)c1cc(F)ccc1Oc1nncnc1N1CCC2(C1)CN([C@@H](CN)C(C)C)C2)C(C)C (single isomer, unassigned)
pIC50: 7.98
//
COMPOUND: CCCN(C)CCC[C@@H](C(C)C)N1CC2(CCN(c3ncnnc3Oc3ccc(F)cc3C(=O)N(CC)C(C)C)C2)C1 (single isomer, unassigned)
pIC50: 8.79
//
COMPOUND: CCN(C(=O)c1cc(F)ccc1Oc1nncnc1N1CCC2(C1)CN([C@H](CCCNCC(CO)OC)C(C)C)C2)C(C)C (stereo partly drawn)
pIC50: 10.00
//
COMPOUND: CCN(C(=O)c1cc(F)ccc1Oc1nncnc1N1CCC2(C1)CN([C@H](CCCN(C)CCO)C(C)C)C2)C(C)C [Compound 259, fumarate]
pIC50: 9.80
//
COMPOUND: CCN(C(=O)c1cc(F)ccc1Oc1nncnc1N1CCC2(C1)CN([C@H](CCNCCO)C(C)C)C2)C(C)C (single isomer, unassigned)
pIC50: 9.54
//
COMPOUND: CCN(C(=O)c1cc(F)ccc1Oc1nncnc1N1CCC2(C1)CN([C@H](CCCN(C)CCCOC)C(C)C)C2)C(C)C [Compound 142, fumarate]
pIC50: 10.15
//
COMPOUND: CCN(C(=O)c1cc(F)ccc1Oc1nnc(Cl)nc1N1CCC2(C1)CN([C@H](CCCN)C(C)C)C2)C(C)C [Compound 406, formate]
pIC50: 10.48
